# assayExplanation: Selectivity index, ratio of IC50 for human MCF-10A to IC50 for human MCF7 cells
# Type: toxicity
# measurementContext: MCF-10A cells and MCF7 cells, read-out: Ratio IC50
quantityKind: selectivity ratio
// keep it numeric: no unit symbol after the value

Solved entries (count: 5):
| sampleSmiles | selectivity ratio |
| --- | --- |
| CC(=O)OC[C@H]1O[C@@H](n2cc(Cn3cc(/C=C/C(=O)c4ccco4)c4cc(Br)ccc43)nn2)[C@H](OC(C)=O)[C@@H](OC(C)=O)[C@@H]1OC(C)=O | 15 |
| CC(=O)OC[C@H]1O[C@@H](n2cc(Cn3cc(/C=C/C(=O)c4ccccc4)c4ccccc43)nn2)[C@H](OC(C)=O)[C@@H](OC(C)=O)[C@@H]1OC(C)=O | 209 |
| CC(=O)OC[C@H]1O[C@@H](n2cc(Cn3cc(/C=C/C(=O)c4ccccc4)c4ccccc43)nn2)[C@H](OC(C)=O)[C@@H](OC(C)=O)[C@H]1OC(C)=O | 153 |
| CC(=O)OC[C@H]1O[C@@H](n2cc(Cn3cc(/C=C/C(=O)c4ccco4)c4cc(Br)ccc43)nn2)[C@H](OC(C)=O)[C@@H](OC(C)=O)[C@H]1OC(C)=O | 161 |
| CC(=O)OC[C@H]1O[C@@H](n2cc(Cn3cc(/C=C/C(=O)c4ccco4)c4ccccc43)nn2)[C@H](OC(C)=O)[C@@H](OC(C)=O)[C@@H]1OC(C)=O | 31.1 |

Next, consider the following compound.
Given `COc1ccc2c(c1)c(/C=C/C(=O)c1ccccc1)cn2Cc1cn([C@@H]2O[C@H](COC(C)=O)[C@H](OC(C)=O)[C@H](OC(C)=O)[C@H]2OC(C)=O)nn1` , respond with its selectivity ratio. 18.4
